The measured values listed here are drawn from PubChem BioAssay (NCI).

tested on: KM12 colon; experiment: NCI-60 one-dose screen, 48 h (100 = growth as untreated, 0 = no growth, -100 = all killed); conditions: 10 µM unless noted
Compounds without any hit were thinned out: in the full panel of roughly 83,000, 20% have a hit.
observable: growth (%)

compound=Nc1ccc2[nH]c(-c3ccccc3)cc(=O)c2c1 observed_result=45.2
compound="CC1(c2ccc3ccccc3c2)CCC(=O)O1 (centres undefined)" observed_result=106
compound=COc1ccc2ccccc2c1/C=N/N1CCCCC1 observed_result=108
compound="NS(=O)(=O)c1cc2c(cc1Cl)NC(C(Cl)Cl)NS2(=O)=O (centres undefined)" observed_result=111

---

System: RXF 393 renal
Assay: NCI-60 one-dose screen, 48 h (100 = growth as untreated, 0 = no growth, -100 = all killed)
Conditions: 10 µM unless noted
Experimental: Cells are grown in 96 well plates and exposed to the test compound for 48 hours. Compounds are tested at a single concentration, which is 10^-5 M for most compounds. The reported endpoint is percent growth (GI% or GIPRCNT), where numbers from 0 - 100% represent growth inhibition, and numbers from -100% - 0 represent cell death. For example, a value of 40 represents 60% growth inhibition. A value of 0 means no net growth occurred over the course of the experiment. […]
This is part of a sample that, as a whole, favours compounds with a hit. Of some 83,000 tested, about 20% had one in any assay.
observable: growth (%)

molecule="CC1=NN(c2ccccc2)C(=O)C1C(=O)c1ccccc1 (stereo not given)" unit_text=% observed_result=140
molecule=O=[N+]([O-])c1ccc2nc3c4ccccc4c4ccccc4c3nc2c1 unit_text=% observed_result=96
molecule=CNC(=O)c1cccnc1 unit_text=% observed_result=114
molecule=Nc1n[nH]c(=S)n1-c1ccc(Cl)cc1 unit_text=% observed_result=96.7
molecule=CC(=O)Nc1cccc2c1CCCC2 unit_text=% observed_result=101

---

tested on: MOLT-4 leukemia; test: NCI-60 one-dose screen, 48 h (100 = growth as untreated, 0 = no growth, -100 = all killed); conditions: 10 µM unless noted
The panel holds about 83,000 compounds, 20% with a hit somewhere; the sample as a whole holds those more often.
Threshold check on growth: at or above 70% gives class 1, strictly below gives class 0.

molecule=COc1ccccc1NC(=O)OCC#CCOC(=O)Nc1ccccc1OC assigned_class="class 1"
molecule=Cc1ccc2nc3c(nc2c1)-c1cccc2cccc-3c12 assigned_class="class 1"
molecule=COc1ccc(NC(=S)Nc2ccccn2)cc1 assigned_class="class 1"
molecule=CCN(CC)CCc1nc(-c2ccccc2)no1 assigned_class="class 1"
molecule="COc1cc2c(Nc3ccc(Cl)c(Cl)c3F)ncnc2cc1OCC1C[C@@H]2CN(C)C[C@@H]2C1 (stereo not given in full)" assigned_class="class 0"

---

tested on: HT29 colon; assay: NCI-60 one-dose screen, 48 h (100 = growth as untreated, 0 = no growth, -100 = all killed); settings: 10 µM unless noted
Compounds without any hit were thinned out: in the full panel of roughly 83,000, 20% have a hit.
Some compounds, each annotated with its measured growth.
observable: growth (%)

compound=CCOC(=O)c1sc(N)nc1-c1ccccc1 study_system="HT29 colon" unit_text=% observed_result=96.8
compound=O=C(CN1CCOCC1)N1CCOCC1 study_system="HT29 colon" unit_text=% observed_result=91
compound=Nc1ccc2[nH]c(-c3ccccc3)cc(=O)c2c1 study_system="HT29 colon" unit_text=% observed_result=78.7
compound=Cc1c(Cl)cccc1NCN1C(=O)c2ccccc2C1=O study_system="HT29 colon" unit_text=% observed_result=104
compound="NC(=O)c1ccccc1OCC(O)CO (stereo unspecified)" study_system="HT29 colon" unit_text=% observed_result=105
compound=NC(=S)N/N=C(\c1ccc(Br)cc1)C1CC1 study_system="HT29 colon" unit_text=% observed_result=68.4
compound="CC1=NN(c2ccccc2)C(=O)C1C(=O)c1ccccc1 (stereo unspecified)" study_system="HT29 colon" unit_text=% observed_result=107
compound=O=[N+]([O-])c1ccc2nc3c4ccccc4c4ccccc4c3nc2c1 study_system="HT29 colon" unit_text=% observed_result=74.6
compound=O=[N+]([O-])c1ccc(-n2[nH]nnc2=S)cc1 study_system="HT29 colon" unit_text=% observed_result=99.2
compound=N#CCCOc1ccccc1 study_system="HT29 colon" unit_text=% observed_result=100
compound=O=C(Nc1cccc(-n2ccc3c(NC(=O)c4ccccc4)nccc32)c1)c1ccc(Cl)c(C(F)(F)F)c1 study_system="HT29 colon" unit_text=% observed_result=43
compound=O=C1c2ccccc2C(=O)N1/N=C/c1ccc2c(c1)OCO2 study_system="HT29 colon" unit_text=% observed_result=94.3
compound=CC1=C(/C=C/C(C)=C/C=C/C(C)=C/C(=O)Nc2ccc(O)cc2)C(C)(C)CCC1 study_system="HT29 colon" unit_text=% observed_result=34.6
compound=O=C=NC(c1ccccc1)(c1ccccc1)c1ccccc1 study_system="HT29 colon" unit_text=% observed_result=99.9
compound=COc1ccc(NC(=S)Nc2ccccn2)cc1 study_system="HT29 colon" unit_text=% observed_result=107
compound=CN(Cc1ccccc1)Cc1ccccc1 study_system="HT29 colon" unit_text=% observed_result=102
compound="Nc1ccccc1SC1CC(=O)N(c2cccc3ccccc23)C1=O (stereo unspecified)" study_system="HT29 colon" unit_text=% observed_result=106
compound=C[N+](C)(C)CN1C(=O)c2ccccc2C1=O study_system="HT29 colon" unit_text=% observed_result=99.6
compound=Cc1n[nH]c(=O)n(/N=C\c2c[nH]c3ccccc23)c1=O study_system="HT29 colon" unit_text=% observed_result=101
compound=Fc1ccccc1Nc1n[nH]c(=S)s1 study_system="HT29 colon" unit_text=% observed_result=103
compound="CC(O)Cn1cnc2c1c(=O)n(C)c(=O)n2C (stereo unspecified)" study_system="HT29 colon" unit_text=% observed_result=109
compound=c1ccc(N(c2ccccc2)c2ccccc2)cc1 study_system="HT29 colon" unit_text=% observed_result=97
compound=CCCCCCCCCCCCCCCCOc1ccc(C)cc1 study_system="HT29 colon" unit_text=% observed_result=106
compound=O=C(O)CSCc1nc2ccccc2[nH]1 study_system="HT29 colon" unit_text=% observed_result=103
compound=CCOC(=O)C(CNc1ccccc1)C(=O)OCC study_system="HT29 colon" unit_text=% observed_result=105
compound=N=C1N=C(N)CS1 study_system="HT29 colon" unit_text=% observed_result=105
compound="CCC(=O)C(CC)c1cccc(OC)c1 (stereo unspecified)" study_system="HT29 colon" unit_text=% observed_result=103
compound=Cc1ccc(S(=O)(=O)NCN2C(=O)c3ccccc3C2=O)cc1 study_system="HT29 colon" unit_text=% observed_result=104
compound=NC(=S)NS(=O)(=O)c1ccc(N)cc1 study_system="HT29 colon" unit_text=% observed_result=109
compound=Cc1ccc(-c2noc(C)n2)cc1 study_system="HT29 colon" unit_text=% observed_result=98.3
compound=S=C1SCN(Cc2ccccc2)CN1Cc1ccccc1 study_system="HT29 colon" unit_text=% observed_result=65.4

---

Some compounds, each annotated with its measured growth.
System: SW-620 colon
Assay: NCI-60 one-dose screen, 48 h (100 = growth as untreated, 0 = no growth, -100 = all killed)
Settings: 10 µM unless noted
Experimental: Growth inhibition of the SW-620 human tumor cell line is measured as a screen for anti-cancer activity. Cells are grown in 96 well plates and exposed to the test compound for 48 hours. Compounds are tested at a single concentration, which is 10^-5 M for most compounds. The reported endpoint is percent growth (GI% or GIPRCNT), where numbers from 0 - 100% represent growth inhibition, and numbers from -100% - 0 represent cell death. For example, a value of 40 represents 60% growth inhibition. […]
The panel holds about 83,000 compounds, 20% with a hit somewhere; the sample as a whole holds those more often.
observable: growth (%)

compound=S=C1SCN(Cc2ccccc2)CN1Cc1ccccc1 study_system="SW-620 colon" observable=growth observed_result=32.9
compound="NS(=O)(=O)c1cc2c(cc1Cl)NC(C(Cl)Cl)NS2(=O)=O (centres undefined)" study_system="SW-620 colon" observable=growth observed_result=110
compound=O=C=NC(c1ccccc1)(c1ccccc1)c1ccccc1 study_system="SW-620 colon" observable=growth observed_result=107
compound=CC12CCC(CC1)C(C)(C)O2 study_system="SW-620 colon" observable=growth observed_result=104

---

test system: UACC-62 melanoma; experiment: NCI-60 one-dose screen, 48 h (100 = growth as untreated, 0 = no growth, -100 = all killed); details: 10 µM unless noted
Compounds without any hit were thinned out: in the full panel of roughly 83,000, 20% have a hit. Calls of active or inactive are those of the source. Rule for the calls: active = growth percent below 10; inactive = the rest.
observable: growth

compound=C#CCN(C)Cc1ccccc1 observed_result="92.3% (inactive)"
compound="CCC1OC2(C)CC(C#N)(C#N)C1(C#N)C(=N)O2 (stereo not drawn)" observed_result="34.6% [100 µM] (inactive)"
compound="N#CC1(C#N)C2CCCCC23OC(=N)C1(C#N)C(c1ccccc1)O3 (stereo not drawn)" observed_result="-40.1% [100 µM] (active)"
compound=CC12CCC(CC1)C(C)(C)O2 observed_result="103% (inactive)"
compound=O=[N+]([O-])c1ccc(-n2[nH]nnc2=S)cc1 observed_result="94.6% (inactive)"
compound=Fc1ccccc1Nc1n[nH]c(=S)s1 observed_result="95.3% (inactive)"
compound=O[C@H]1[C@H](O)[C@@H](Cn2nnc(-c3ccccc3)c2-c2ccccc2)OCO[C@@H]1Cn1nnc(-c2ccccc2)c1-c1ccccc1 observed_result="-77.8% [100 µM] (active)"
compound=S=C1SCN(Cc2ccccc2)CN1Cc1ccccc1 observed_result="82.5% (inactive)"
